These entries and their values trace back to ChEMBL document CHEMBL1132094.

- measured_target: Telomerase reverse transcriptase (Homo sapiens, UniProt O14746)
- Sequence (O14746 whole entry): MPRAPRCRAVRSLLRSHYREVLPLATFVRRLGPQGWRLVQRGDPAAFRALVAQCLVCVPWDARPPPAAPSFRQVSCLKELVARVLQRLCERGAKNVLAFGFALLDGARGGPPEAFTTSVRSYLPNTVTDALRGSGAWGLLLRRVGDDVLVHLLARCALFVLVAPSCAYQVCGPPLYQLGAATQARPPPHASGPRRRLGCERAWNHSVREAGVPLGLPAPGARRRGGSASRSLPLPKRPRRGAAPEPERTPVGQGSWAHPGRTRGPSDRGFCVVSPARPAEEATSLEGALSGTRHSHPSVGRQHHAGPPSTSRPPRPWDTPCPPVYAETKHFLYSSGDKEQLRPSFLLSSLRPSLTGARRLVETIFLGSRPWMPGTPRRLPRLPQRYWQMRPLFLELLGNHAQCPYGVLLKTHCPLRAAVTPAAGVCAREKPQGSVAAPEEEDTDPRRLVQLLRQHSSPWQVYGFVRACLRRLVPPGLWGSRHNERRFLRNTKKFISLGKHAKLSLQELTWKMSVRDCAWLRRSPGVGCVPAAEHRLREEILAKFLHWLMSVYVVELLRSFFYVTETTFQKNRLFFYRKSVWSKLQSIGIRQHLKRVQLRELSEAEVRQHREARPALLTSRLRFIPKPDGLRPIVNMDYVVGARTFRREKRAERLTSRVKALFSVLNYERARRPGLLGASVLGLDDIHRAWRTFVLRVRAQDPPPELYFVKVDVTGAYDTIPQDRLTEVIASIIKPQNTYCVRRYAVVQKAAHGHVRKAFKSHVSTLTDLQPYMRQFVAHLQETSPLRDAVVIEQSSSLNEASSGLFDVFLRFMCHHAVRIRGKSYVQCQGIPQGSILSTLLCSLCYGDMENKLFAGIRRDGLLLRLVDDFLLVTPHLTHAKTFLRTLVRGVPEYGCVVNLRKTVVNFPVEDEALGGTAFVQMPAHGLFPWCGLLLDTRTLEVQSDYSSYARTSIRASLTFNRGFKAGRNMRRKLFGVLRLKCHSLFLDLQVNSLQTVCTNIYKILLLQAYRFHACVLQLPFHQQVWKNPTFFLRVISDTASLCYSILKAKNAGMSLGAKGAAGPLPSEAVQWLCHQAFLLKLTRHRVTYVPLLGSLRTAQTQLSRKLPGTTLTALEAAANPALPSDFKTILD
- assay_protocol: Ability to inhibit human telomerase in a modified cell-free TRAP assay using extracts from A2780 cell line
measure: IC50

Query :: Give the measured IC50 for CC1(C)CC2CC(C)(CN2CCC(=O)Nc2ccc3cc4ccc(NC(=O)CCN5CC6(C)CC5CC(C)(C)C6)cc4nc3c2)C1
Result :: > 50 µM

Query :: Read the entry O=C(CCN1CCOCC1)Nc1ccc2cc3ccc(NC(=O)CCN4CCOCC4)cc3nc2c1 and write its reported IC50.
Result :: > 50 µM

Query :: Please list IC50 recorded for the molecule O=C(CCN1CCCCC1CCO)Nc1ccc2cc3ccc(NC(=O)CCN4CCCCC4CCO)cc3nc2c1 (centres undefined)
Result :: 4.1 µM

Query :: Name the recorded IC50 of the molecule listed here: O=C(CCN1CCCCCCC1)Nc1ccc2cc3ccc(NC(=O)CCN4CCCCCCC4)cc3nc2c1
Result :: > 50 µM
